Ref: paper PMC6906472

- Test system: P. aeruginosa ATCC 27853
- stated.conditions: ATCC 27853
Square brackets hold non-standard residues; d marks the D form. Peptide text beside a SMILES is read from it. * marks the point of attachment. X2 = CC[C@H](C)CCCC[C@@H](O)CC(=O)*; d(aIle) = CC[C@H](C)[C@@H](N)C(=O)O; X1 = CC[C@H](C)CCCCC(=O)*; dDab = NCC[C@@H](N)C(=O)O; Dab = NCC[C@H](N)C(=O)O
metric: Peptide MIC

Recorded result, CC[C@H](C)CCCC[C@@H](O)CC(=O)N[C@@H](C(=O)N[C@H](CCN)C(=O)NCC(=O)N[C@H](CO)C(=O)N[C@H](Cc1ccccc1)C(=O)N[C@@H](CO)C(=O)N[C@@H](CCN)C(=O)N[C@H](CCN)C(=O)N[C@@H](Cc1ccccc1)C(=O)N[C@@H](CCC(=O)O)C(=O)N[C@H](C(=O)N[C@@H](C(=O)N[C@@H](CO)C(=O)O)[C@@H](C)CC)[C@@H](C)CC)C(C)C [M11] (X2-[dV][dDab]G[dS][dF]S[Dab][dDab]FEI[d(aIle)]S-OH; N-terminus and C-terminus assumed) , Peptide MIC: 8 µg/mL

get_value(item= CC[C@H](C)CCCCC(=O)NCC(=O)N[C@H](CCN)C(=O)NCC(=O)N[C@H](CO)C(=O)N[C@H](Cc1c[nH]c2ccccc12)C(=O)N[C@@H](CO)C(=O)N[C@@H](CCN)C(=O)N[C@H](CCN)C(=O)N[C@H](C(=O)N[C@@H](CCC(=O)O)C(=O)N[C@H](C(=O)N[C@@H](C(=O)N[C@@H](CO)C(=O)O)C(C)C)[C@@H](C)CC)[C@@H](C)CC [M6] (X1-G[dDab]G[dS][dW]S[Dab][dDab]IEI[dV]S-OH) , readout=Peptide MIC) returns >32 µg/mL

In plain terms, CC[C@H](C)CCCCC(=O)NCC(=O)N[C@H](CCN)C(=O)NCC(=O)N[C@H](CO)C(=O)N[C@H](Cc1c[nH]c2ccccc12)C(=O)N[C@@H](CO)C(=O)N[C@@H](CCN)C(=O)N[C@H](CCN)C(=O)N[C@H](C(=O)N[C@@H](CCC(=O)O)C(=O)N[C@H](C(=O)N[C@@H](C(=O)N[C@@H](CO)C(=O)O)C(C)C)C(C)C)[C@@H](C)CC [M2] (X1-G[dDab]G[dS][dW]S[Dab][dDab]IEV[dV]S-OH) has a documented Peptide MIC of >32 µg/mL
